Below, each of the molecules is paired with its reported Cmax value.
- Target Or Test System: UniProtKB Q03181
- Assay Name: In vitro PPARδ transactivation assay (Gal4-hPPARδLBD luciferase reporter in 293E cells)
- Recorded Conditions: read-out: Cmax, concentration at maximum efficiency percentage (Max%), PPARδ, 24 h, multiple concentrations
Numbers only; they are read as nM.

CC(C)(Oc1cccc(OCc2cccnc2)c1)C(=O)O    100
c1cncc(COc2cccc(OCc3nn[nH]n3)c2)c1 [10l]    100

Turning to the following molecule.
Looking for the measured Cmax of `CC(C)(Oc1ccc(OCCCn2cnc3ccccc32)cc1)C(=O)O` , can you help?
100

---

- Target Or Test System: PPARα (Homo sapiens)
- Construct: pcDNA3.1-hPPARαLBD-Gal4DB; expressed in transfected cells; host or cells: 293E cells
- Assay Name: In vitro PPARα transactivation assay (Gal4-hPPARαLBD luciferase reporter in 293E cells)
- Type: cell-based
- Recorded Conditions: 10^−5 M, 24 h, Csamples/Ccontrol, mean±SEM
Experimental Endpoint: PPARα Activation Fold
// print number alone

# annotated cases, reported PPARα Activation Fold shown
c1cncc(COc2cccc(OCc3nn[nH]n3)c2)c1 [10l]    1.15
CC(C)(Oc1ccc(OCCCn2cnc3ccccc32)cc1)C(=O)O [6e]    1.38
c1cncc(COc2ccc(OCc3nn[nH]n3)cc2)c1 [10f]    0.80

Quick one: PPARα Activation Fold for c1cc(OCCCn2c3ccccc3c3ccccc32)cc(OCc2nn[nH]n2)c1 [10j] ?
0.65

Entry CC(C)(Oc1cccc(OCc2cccnc2)c1)C(=O)O [6l] : reported PPARα Activation Fold = ?
1.39

Name the reported PPARα Activation Fold value associated with the molecule CC(C)(Oc1cccc(OCCn2ccc3ccccc32)c1)C(=O)O [6o]
1.01

Sample c1ccc(CCCOc2ccc(OCc3nn[nH]n3)cc2)cc1 [10e] — what was its PPARα Activation Fold?
1.91

---

- Target Or Test System: PPARγ (Homo sapiens, UniProt P37231)
- Sequence (P37231 238-503 limits assumed): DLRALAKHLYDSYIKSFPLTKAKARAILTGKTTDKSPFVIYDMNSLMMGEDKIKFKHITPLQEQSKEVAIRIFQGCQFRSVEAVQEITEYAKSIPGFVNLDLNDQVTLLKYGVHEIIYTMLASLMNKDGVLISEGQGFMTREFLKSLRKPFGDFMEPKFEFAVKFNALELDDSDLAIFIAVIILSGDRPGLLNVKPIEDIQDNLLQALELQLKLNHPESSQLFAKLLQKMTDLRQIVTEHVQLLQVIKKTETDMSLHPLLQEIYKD
Experimental Endpoint: Cmax

CC(C)(Oc1cccc(OCCn2c3ccccc3c3ccccc32)c1)C(=O)O    50 µM

# input for lookup
What does the data say about its Cmax? Entry: c1cc(OCCn2c3ccccc3c3ccccc32)cc(OCc2nn[nH]n2)c1 [10h]
30 µM

---

- Target Or Test System: PPARα (Homo sapiens)
- Construct: pcDNA3.1-hPPARαLBD-Gal4DB; expressed in transfected cells; host or cells: 293E cells
- Assay Name: In vitro PPARα transactivation assay (Gal4-hPPARαLBD luciferase reporter in 293E cells)
- Assay type: cell-based
- Recorded Conditions: 10^−5 M, 24 h, Csamples/Ccontrol, mean±SEM
Catalogue of compounds with associated PPARα Activation Fold
Would you mind answering with just the numeric figure?

Some compounds with known PPARα Activation Fold results, for comparison:
CC(C)(Oc1cccc(OCCCn2ccc3ccccc32)c1)C(=O)O [6h]    3.81
CC(C)(Oc1ccc(OCCCc2ccccc2)cc1)C(=O)O [6m]    2.01
CC(C)(Oc1ccc(OCCCn2ccc3ccccc32)cc1)C(=O)O [6c]    1.78
CC(C)(Oc1cccc(OCCCc2ccccc2)c1)C(=O)O [6k]    1.50
c1ccc2c(c1)c1ccccc1n2CCOc1ccc(OCc2nn[nH]n2)cc1 [10b]    0.55
CC(C)(Oc1ccc(OCCn2c3ccccc3c3ccccc32)cc1)C(=O)O [6b]    0.80
c1cc(OCCn2ccc3ccccc32)cc(OCc2nn[nH]n2)c1 [10g]    0.90
c1ccc2c(c1)ccn2CCCOc1ccc(OCc2nn[nH]n2)cc1 [10c]    0.67
CC(C)(Oc1cccc(OCCCn2cnc3ccccc32)c1)C(=O)O [6j]    0.97

As a next step, examine the compound that follows.
For the record c1ccc(CCCOc2cccc(OCc3nn[nH]n3)c2)cc1 [10k] , what value of PPARα Activation Fold is listed for PPARα (Homo sapiens)?
0.74

---

The following molecules are shown together with reported EC50 values.
- Target Or Test System: PPARδ (Homo sapiens, UniProt Q03181)
- Assay Name: cell-based
Report only the number, with the unit nM understood.

Recorded EC50, per entry:
CC(C)(Oc1cccc(OCc2cccnc2)c1)C(=O)O [6l]    1.9
c1cncc(COc2cccc(OCc3nn[nH]n3)c2)c1 [10l]    27.3

# ---- query molecule ----
# returns recorded EC50 (system: PPARδ (Homo sapiens, UniProt Q03181)) for CC(C)(Oc1ccc(OCCCn2cnc3ccccc32)cc1)C(=O)O [6e]
11.1

---

- Target Or Test System: PPARα (Homo sapiens, UniProt Q07869)
- Construct: pcDNA3.1-hPPARαLBD-Gal4DB; expressed in transfected cells; host or cells: 293E cells
- Assay Name: In vitro PPARα transactivation assay (Gal4-hPPARαLBD luciferase reporter in 293E cells)
- Type: cell-based
- Recorded Conditions: 24 h, multiple concentrations, read-out: Cmax, concentration at maximum efficiency percentage (Max%), PPARα
Experimental Endpoint: Cmax (µM)
# number only, unit µM dropped from output

Can you look up the measured Cmax of `CC(C)(Oc1cccc(OCCCn2ccc3ccccc32)c1)C(=O)O` for me?
10

---

Quick reference for PPARδ Activation Fold among some compounds
- Target Or Test System: PPARδ (Homo sapiens)
- Sequence (Q03181 211-439 limits assumed): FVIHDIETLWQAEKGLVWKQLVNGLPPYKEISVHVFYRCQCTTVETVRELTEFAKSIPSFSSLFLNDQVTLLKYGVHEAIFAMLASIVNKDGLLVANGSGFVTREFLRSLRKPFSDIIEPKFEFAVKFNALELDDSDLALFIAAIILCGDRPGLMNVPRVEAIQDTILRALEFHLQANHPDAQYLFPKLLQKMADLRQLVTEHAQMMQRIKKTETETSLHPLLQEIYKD
- Assay Name: In vitro PPARδ transactivation assay (Gal4-hPPARδLBD luciferase reporter in 293E cells)
- Recorded Conditions: 10^−5 M, 24 h, Csamples/Ccontrol, mean±SEM
Please reply with the number alone, leaving off any unit.

Worked cases, answers included:
CC(C)(Oc1cccc(OCC(=O)c2ccccc2)c1)C(=O)O    1.27
c1cc(OCCCn2c3ccccc3c3ccccc32)cc(OCc2nn[nH]n2)c1 [10j]    0.88

Below: the item to evaluate.
Using the record for `CC(C)(Oc1cccc(OCCCn2ccc3ccccc32)c1)C(=O)O` , report its PPARδ Activation Fold.
0.78

---

- Target Or Test System: PPARγ (Homo sapiens, UniProt P37231)
- Assay Name: In vitro PPARγ transactivation assay (Gal4-hPPARγLBD luciferase reporter in 293E cells)
- Recorded Conditions: 10^−5 M, 24 h, Csamples/Ccontrol, mean±SEM
Here the recorded PPARγ Activation Fold is given for each entry.
Give only the figure.

c1cncc(COc2cccc(OCc3nn[nH]n3)c2)c1 [10l]    1.07
c1cncc(COc2ccc(OCc3nn[nH]n3)cc2)c1 [10f]    1.24

Attention now turns to another entry.
What measured PPARγ Activation Fold goes with `CC(C)(Oc1ccc(OCCn2c3ccccc3c3ccccc32)cc1)C(=O)O` ?
1.19

---

- Target Or Test System: PPARδ (Homo sapiens)
- Assay Name: In vitro PPARδ transactivation assay (Gal4-hPPARδLBD luciferase reporter in 293E cells)
- Recorded Conditions: 10^−5 M, 24 h, Csamples/Ccontrol, mean±SEM
Experimental Endpoint: PPARδ Activation Fold
Give the figure only, with no unit attached.

Previously resolved entries follow.
c1ccc2c(c1)ccn2CCCOc1ccc(OCc2nn[nH]n2)cc1 [10c]    1.01
CC(C)(Oc1cccc(OCCCn2cnc3ccccc32)c1)C(=O)O [6j]    0.86
c1cc(OCCCn2ccc3ccccc32)cc(OCc2nn[nH]n2)c1 [10i]    0.77

Next compound, PPARδ Activation Fold to be filled in.
Give its PPARδ Activation Fold value. Item: CC(C)(Oc1cccc(OCCCn2c3ccccc3c3ccccc32)c1)C(=O)O [6i]
0.88

---

# key: entry, value: PPARα Activation Fold
- Target Or Test System: PPARα (Homo sapiens)
- Construct: pcDNA3.1-hPPARαLBD-Gal4DB; expressed in transfected cells; host or cells: 293E cells
- Sequence (Q07869 239-466 limits assumed): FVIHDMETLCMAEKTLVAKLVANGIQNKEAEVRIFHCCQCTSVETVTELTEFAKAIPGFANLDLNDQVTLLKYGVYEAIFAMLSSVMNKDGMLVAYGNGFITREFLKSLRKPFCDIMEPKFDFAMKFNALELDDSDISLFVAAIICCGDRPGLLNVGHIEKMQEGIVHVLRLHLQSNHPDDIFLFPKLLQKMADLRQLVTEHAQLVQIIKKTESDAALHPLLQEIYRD
- Assay Name: In vitro PPARα transactivation assay (Gal4-hPPARαLBD luciferase reporter in 293E cells)
- Type: cell-based
- Recorded Conditions: 10^−5 M, 24 h, Csamples/Ccontrol, mean±SEM

CC(C)(Oc1cccc(OCCn2c3ccccc3c3ccccc32)c1)C(=O)O [6g]    1.40±0.27
CC(C)(Oc1ccc(OCC(=O)c2ccccc2)cc1)C(=O)O [6n]    1.16±0.02
CC(C)(Oc1ccc(OCCn2ccc3ccccc32)cc1)C(=O)O [6a]    1.00±0.07

Lab note: next molecule to report on.
Name the recorded PPARα Activation Fold for c1cc(OCCn2c3ccccc3c3ccccc32)cc(OCc2nn[nH]n2)c1 [10h] .
0.81±0.02
